Cited source: patent US20230399312A1

Measured Target: recombinant human ALK5 (TGF-βR1) protein (Homo sapiens, UniProt P36897)
Sequence (P36897 34-503): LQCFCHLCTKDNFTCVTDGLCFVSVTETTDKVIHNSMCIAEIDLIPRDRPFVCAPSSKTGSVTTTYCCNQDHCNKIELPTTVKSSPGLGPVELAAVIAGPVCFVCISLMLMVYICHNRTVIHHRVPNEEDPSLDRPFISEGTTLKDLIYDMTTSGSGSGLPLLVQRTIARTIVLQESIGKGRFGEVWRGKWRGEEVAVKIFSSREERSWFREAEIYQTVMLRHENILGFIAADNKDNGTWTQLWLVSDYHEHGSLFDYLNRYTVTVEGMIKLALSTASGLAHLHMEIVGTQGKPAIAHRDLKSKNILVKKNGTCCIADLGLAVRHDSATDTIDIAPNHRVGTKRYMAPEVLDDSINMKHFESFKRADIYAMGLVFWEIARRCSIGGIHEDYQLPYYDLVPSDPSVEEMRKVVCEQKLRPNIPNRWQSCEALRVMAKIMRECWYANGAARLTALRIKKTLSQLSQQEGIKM
Protocol Text: Biochemical ALK5 (TGF-βR1) assay to measure pKi (LANCE Ultra ULight kinase assay)
Test Settings: apparent pKi, converted from pIC50 by Cheng-Prusoff
pKi: −log10 of the molar value.
# pKi values compiled below
Reported Metric: pKi

In [3]: df
Out[3]:
                               entry_smiles            val
0  Cc1cccc(-c2nccc(Nc3ccnc(Nc4ccc(NC(=O)C5CCNCC5)c(C)c4)n3)n2)n1  9.50 to 10.40
1  Cc1cccc(-c2nccc(Nc3ccnc(Nc4ncc(C(=O)N5CCNCC5)s4)n3)n2)n1   7.50 to 8.40
2  Cc1cccc(-c2nccc(Nc3ccnc(Nc4cc(C(=O)OC5CCNCC5)ccn4)n3)n2)n1   7.50 to 8.40
3  COC(=O)[C@H]1CN(Cc2ccc(Nc3nccc(Nc4ccnc(-c5cccc(C)n5)n4)n3)cc2)CCN1  9.50 to 10.40
